- METHOD DESCRIPTION: endothelial E-selectin expression blockers – imaging, HUVEC, immunofluorescence, MLSMR starter and 10KST1 sets, primary screen (AID 487);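 note: signal is fraction of cell area covered by stained E-selectin grains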
- CONDITION DETAILS: HUVEC TNFalpha-induced E-selectin immunofluorescence imaging, at 2 µM; hits give high values

>  <COMPOUND>
O=C(NCCN1CCCCCC1)c1ccc(N2CCCC2=O)cc1

>  <inhibition, %>
60.4

$$$$
>  <COMPOUND>
Cc1onc(-c2ccccc2Cl)c1C(=O)Nc1cccc(-c2cn3cccnc3n2)c1

>  <inhibition, %>
-4

$$$$
>  <COMPOUND>
Cc1ccccc1NC(=O)CSc1nnc(Cc2cccn2C)n1-c1ccc(F)cc1

>  <inhibition, %>
-61

$$$$
>  <COMPOUND>
COC(=O)c1ccc(C(=O)OC)c(NC(=O)Nc2ccc3c(c2)OCO3)c1

>  <inhibition, %>
-15.8

$$$$
>  <COMPOUND>
Cc1ccc(CN2C(=O)CCC2C(=O)NCC2CCCO2)cc1 (configuration not stated)

>  <inhibition, %>
-16.2

$$$$
>  <COMPOUND>
CON(C)c1nc(Oc2ccc(=O)[nH]n2)nc(N(C)C)n1

>  <inhibition, %>
-48.5

$$$$
>  <COMPOUND>
COC(=O)C1=C(C)NC(=O)C1(NC(=O)CN1CCCC1=O)C(F)(F)F (configuration not stated)

>  <inhibition, %>
-79.8

$$$$
>  <COMPOUND>
COc1ccc2c(c1)CCc1c(C(=O)N3CC4(C)CC3CC(C)(C)C4)noc1-2 (configuration not stated)

>  <inhibition, %>
-59

$$$$
>  <COMPOUND>
CCOC(=O)c1c(-c2ccc(C)o2)csc1NC(=O)CN1CCN(CC)CC1

>  <inhibition, %>
-12.2

$$$$
>  <COMPOUND>
COc1ccc2c3c(c(=O)oc2c1OCC(N)=O)CCCC3

>  <inhibition, %>
-29.2

$$$$
>  <COMPOUND>
COc1ccc(CC(=O)Nc2ccc(OC)c(NC(=O)c3ccco3)c2)cc1

>  <inhibition, %>
-70.8

$$$$
>  <COMPOUND>
COCCOC(=O)C1=C(N)OC2=C(C(=O)CC(C)(C)C2)C1c1cccnc1 (configuration not stated)

>  <inhibition, %>
22.6

$$$$
>  <COMPOUND>
O=C(CCn1[nH]c(=O)c2ccccc2c1=O)NCCO

>  <inhibition, %>
-35.4

$$$$
>  <COMPOUND>
CN(CC(=O)N1CCN(c2ccccn2)CC1)S(=O)(=O)c1ccc2ccccc2c1

>  <inhibition, %>
-109

$$$$
>  <COMPOUND>
CC1(C)CC(=O)C=C(Nc2ccc(F)cc2)C1

>  <inhibition, %>
-20

$$$$
>  <COMPOUND>
O=C(Cn1cnc2c(cnn2-c2ccc(F)cc2)c1=O)N1CCN(c2ccccc2)CC1

>  <inhibition, %>
-79.8

$$$$
>  <COMPOUND>
COc1ccc(CCN2C(=O)C3C4C=CC(C4)C3C2=O)cc1OC (configuration not stated)

>  <inhibition, %>
-4.2

$$$$
>  <COMPOUND>
O=C1COc2ccc(C(=O)COC(=O)CCc3ccc(S(=O)(=O)N4CCOCC4)cc3)cc2N1

>  <inhibition, %>
-119

$$$$
>  <COMPOUND>
CCN(CCCNC(=O)C1CCCN(S(=O)(=O)c2cnc[nH]2)C1)c1ccccc1 (configuration not stated)

>  <inhibition, %>
-91.6

$$$$
>  <COMPOUND>
O=C(O)CCCC(=O)NCCc1ccncc1

>  <inhibition, %>
1.4

$$$$
>  <COMPOUND>
CC(=O)NC(C)C(=O)OCc1ccc(Cl)cc1Cl (configuration not stated)

>  <inhibition, %>
-22.9

$$$$
>  <COMPOUND>
COc1ccc(C(=O)COC(=O)CCn2nnc(-c3cccs3)n2)cc1

>  <inhibition, %>
56.4

$$$$
